# measurementProtocol: Rifaximin systemic exposure/pharmacokinetics in healthy subjects, IBS subjects and liver impaired subjects
# Assay type: in vivo, human
# conditionDetails: human, plasma, oral, 550 mg, IBS-D Patients; 550 mg Single-Dose (Day 1); N = 24; read-out: Half-life, harmonic mean (pseudo SD) (converted)
measureName: half-life (h)
Respond numerically; units are h and should not be typed.

Identify measured half-life associated with CO[C@H]1/C=C/O[C@@]2(C)Oc3c(C)c(O)c4c(O)c(c5c(nc6cc(C)ccn65)c4c3C2=O)NC(=O)/C(C)=C\C=C\[C@H](C)[C@H](O)[C@@H](C)[C@@H](O)[C@@H](C)[C@H](OC(C)=O)[C@@H]1C
3.14

---

# measurementProtocol: Rifaximin systemic exposure/pharmacokinetics in healthy subjects, IBS subjects and liver impaired subjects
# Format: in vivo, human
# conditionDetails: human, plasma, oral, 550 mg, IBS-D Patients; 550 mg Multiple-Dose TID (Day 14); N = 24; read-out: Half-life, harmonic mean (pseudo SD) (converted)
measureName: half-life (h)
Kindly provide the numeric value in h only, without the unit symbol.

Look up half-life of CO[C@H]1/C=C/O[C@@]2(C)Oc3c(C)c(O)c4c(O)c(c5c(nc6cc(C)ccn65)c4c3C2=O)NC(=O)/C(C)=C\C=C\[C@H](C)[C@H](O)[C@@H](C)[C@@H](O)[C@@H](C)[C@H](OC(C)=O)[C@@H]1C and report it.
6.08

---

# measurementProtocol: Rifaximin systemic exposure/pharmacokinetics in healthy subjects, IBS subjects and liver impaired subjects
# Format: in vivo, human
# conditionDetails: human, plasma, oral, 550 mg, Healthy Subjects; 550 mg Multiple-Dose TID (Day 14); N = 14; read-out: Half-life, harmonic mean (pseudo SD) (converted)
measureName: half-life (h)
Report the figure in h without appending any unit label.

Note half-life for the compound shown: CO[C@H]1/C=C/O[C@@]2(C)Oc3c(C)c(O)c4c(O)c(c5c(nc6cc(C)ccn65)c4c3C2=O)NC(=O)/C(C)=C\C=C\[C@H](C)[C@H](O)[C@@H](C)[C@@H](O)[C@@H](C)[C@H](OC(C)=O)[C@@H]1C
5.63

---

# measurementProtocol: Crossover drug interaction study: oral cyclosporine 600 mg on pharmacokinetics of single-dose rifaximin 550 mg
# Format: in vivo, human
# conditionDetails: both sexes, human, plasma, oral, 550 mg
measureName: Tmax (h)
Numbers only here, please. The scale is h.

Return value of Tmax for input CO[C@H]1/C=C/O[C@@]2(C)Oc3c(C)c(O)c4c(O)c(c5c(nc6cc(C)ccn65)c4c3C2=O)NC(=O)/C(C)=C\C=C\[C@H](C)[C@H](O)[C@@H](C)[C@@H](O)[C@@H](C)[C@H](OC(C)=O)[C@@H]1C , no commentary.
1

---

# measurementProtocol: Rifaximin systemic exposure/pharmacokinetics in healthy subjects, IBS subjects and liver impaired subjects
# Format: in vivo, human
# conditionDetails: human, plasma, oral, 550 mg, Healthy Subjects; 550 mg Single-Dose (Day 1); N = 12; read-out: AUCtau, mean (SD)
measureName: AUC (ng·h/mL)
Express it in ng·h/mL; write the number only.

Using the record for CO[C@H]1/C=C/O[C@@]2(C)Oc3c(C)c(O)c4c(O)c(c5c(nc6cc(C)ccn65)c4c3C2=O)NC(=O)/C(C)=C\C=C\[C@H](C)[C@H](O)[C@@H](C)[C@@H](O)[C@@H](C)[C@H](OC(C)=O)[C@@H]1C [Rifaximin] , state its measured AUC.
10.4

---

# measurementProtocol: Rifaximin systemic exposure/pharmacokinetics in healthy subjects, IBS subjects and liver impaired subjects
# Type: in vivo, human
# conditionDetails: human, plasma, 550 mg, 550 mg BID repeat dosing; Child-Pugh C; read-out: Mean steady-state AUCtau
measureName: AUC

Please look at this compound and report its AUC: CO[C@H]1/C=C/O[C@@]2(C)Oc3c(C)c(O)c4c(O)c(c5c(nc6cc(C)ccn65)c4c3C2=O)NC(=O)/C(C)=C\C=C\[C@H](C)[C@H](O)[C@@H](C)[C@@H](O)[C@@H](C)[C@H](OC(C)=O)[C@@H]1C [Rifaximin]
246 ng·h/mL

---

# measurementProtocol: Rifaximin systemic exposure/pharmacokinetics in healthy subjects, IBS subjects and liver impaired subjects
# Format: in vivo, human
# conditionDetails: human, plasma, oral, 550 mg, Healthy Subjects; 550 mg Single-Dose (Day 1); N = 12; read-out: Tmax, Median (range)
measureName: Tmax (min)
Please state the figure in min; there is no need to write the unit.

Provide one value: measured Tmax of CO[C@H]1/C=C/O[C@@]2(C)Oc3c(C)c(O)c4c(O)c(c5c(nc6cc(C)ccn65)c4c3C2=O)NC(=O)/C(C)=C\C=C\[C@H](C)[C@H](O)[C@@H](C)[C@@H](O)[C@@H](C)[C@H](OC(C)=O)[C@@H]1C
45

---

# measurementProtocol: Rifaximin systemic exposure/pharmacokinetics in healthy subjects, IBS subjects and liver impaired subjects
# Format: in vivo, human
# conditionDetails: human, plasma, oral, 550 mg, Healthy Subjects; 550 mg Multiple-Dose TID (Day 14); N = 14; read-out: AUCtau, mean (SD)
measureName: AUC (ng·h/mL)
Value expressed in ng·h/mL; do not type the unit.

Output AUC of CO[C@H]1/C=C/O[C@@]2(C)Oc3c(C)c(O)c4c(O)c(c5c(nc6cc(C)ccn65)c4c3C2=O)NC(=O)/C(C)=C\C=C\[C@H](C)[C@H](O)[C@@H](C)[C@@H](O)[C@@H](C)[C@H](OC(C)=O)[C@@H]1C
9.3

---

# measurementProtocol: Rifaximin systemic exposure/pharmacokinetics in healthy subjects, IBS subjects and liver impaired subjects
# Type: in vivo, human
# conditionDetails: human, plasma, oral, 550 mg, Healthy Subjects; 550 mg Multiple-Dose TID (Day 14); N = 14; read-out: Cmax, mean (SD)
measureName: Cmax
Write the numeric value and append its unit.

Look up and state reported Cmax for CO[C@H]1/C=C/O[C@@]2(C)Oc3c(C)c(O)c4c(O)c(c5c(nc6cc(C)ccn65)c4c3C2=O)NC(=O)/C(C)=C\C=C\[C@H](C)[C@H](O)[C@@H](C)[C@@H](O)[C@@H](C)[C@H](OC(C)=O)[C@@H]1C
2.39 ng/mL

---

# measurementProtocol: Crossover drug interaction study: oral cyclosporine 600 mg on pharmacokinetics of single-dose rifaximin 550 mg
# Type: in vivo, human
# conditionDetails: both sexes, human, plasma, oral, 550 mg
measureName: half-life (h)
The figure you give is taken to be in h; do not add the unit.

Give a short answer stating reported half-life for CO[C@H]1/C=C/O[C@@]2(C)Oc3c(C)c(O)c4c(O)c(c5c(nc6cc(C)ccn65)c4c3C2=O)NC(=O)/C(C)=C\C=C\[C@H](C)[C@H](O)[C@@H](C)[C@@H](O)[C@@H](C)[C@H](OC(C)=O)[C@@H]1C .
2.86

---

# measurementProtocol: Rifaximin systemic exposure/pharmacokinetics in healthy subjects, IBS subjects and liver impaired subjects
# Type: in vivo, human
# conditionDetails: human, plasma, oral, 550 mg, IBS-D Patients; 550 mg Single-Dose (Day 1); N = 24; read-out: Cmax, mean (SD)
measureName: Cmax (ng/mL)
Give the value in ng/mL but do not write ng/mL after it.

Recall and state the measured Cmax for CO[C@H]1/C=C/O[C@@]2(C)Oc3c(C)c(O)c4c(O)c(c5c(nc6cc(C)ccn65)c4c3C2=O)NC(=O)/C(C)=C\C=C\[C@H](C)[C@H](O)[C@@H](C)[C@@H](O)[C@@H](C)[C@H](OC(C)=O)[C@@H]1C .
3.49

---

# measurementProtocol: Rifaximin systemic exposure/pharmacokinetics in healthy subjects, IBS subjects and liver impaired subjects
# Format: in vivo, human
# conditionDetails: human, plasma, oral, 550 mg, 550 mg BID; Child-Pugh C; read-out: Mean steady-state AUCtau
measureName: AUC (ng·h/mL)
Reply with just the number (in ng·h/mL).

Give AUC for CO[C@H]1/C=C/O[C@@]2(C)Oc3c(C)c(O)c4c(O)c(c5c(nc6cc(C)ccn65)c4c3C2=O)NC(=O)/C(C)=C\C=C\[C@H](C)[C@H](O)[C@@H](C)[C@@H](O)[C@@H](C)[C@H](OC(C)=O)[C@@H]1C
257

---

# measurementProtocol: Rifaximin systemic exposure/pharmacokinetics in healthy subjects, IBS subjects and liver impaired subjects
# Assay type: in vivo, human
# conditionDetails: human, plasma, oral, 550 mg, IBS-D Patients; 550 mg Multiple-Dose TID (Day 14); N = 24; read-out: Tmax, Median (range)
measureName: Tmax (h)
Write down the numeric answer in h and omit the unit.

Read off the recorded Tmax for CO[C@H]1/C=C/O[C@@]2(C)Oc3c(C)c(O)c4c(O)c(c5c(nc6cc(C)ccn65)c4c3C2=O)NC(=O)/C(C)=C\C=C\[C@H](C)[C@H](O)[C@@H](C)[C@@H](O)[C@@H](C)[C@H](OC(C)=O)[C@@H]1C
1
